Please respond with reported inhibition for every item in the list.
tested on: Escherichia coli; experiment: Covalent allosteric inhibition of recombinant Escherichia coli beta-glucuronidase using PNPG as substrate at 10 uM incubated for 30 mins by absorbance based microplate reader assay relative to control

Q. Look at this compound and give its reported inhibition. COC(=O)[C@H](Cc1c[nH]c2ccccc12)n1[se]c2ccccc2c1=O
A. > 90%

Q. Look at this compound and give its reported inhibition. Cc1nnc(-n2[se]c3ccccc3c2=O)s1
A. < 90%

Q. Look at this compound and give its reported inhibition. O=c1c2ccccc2[se]n1-c1cnc2[nH]ncc2c1
A. < 90%

Q. Look at this compound and give its reported inhibition. Cn1cc(-n2[se]c3ccccc3c2=O)cn1
A. 94.8%

Q. Look at this compound and give its reported inhibition. O=c1c2ccccc2[se]n1CC(F)(F)F
A. 94.7%

Q. Look at this compound and give its reported inhibition. O=c1c2ccccc2[se]n1-c1ccc2[nH]ncc2c1
A. < 90%

Q. Look at this compound and give its reported inhibition. CC(C)c1nnc(-n2[se]c3ccccc3c2=O)s1
A. < 90%

Q. Look at this compound and give its reported inhibition. Cc1cc(-n2[se]c3ccccc3c2=O)n[nH]1
A. < 90%

Q. Look at this compound and give its reported inhibition. COC(=O)[C@H](Cc1ccc(O)cc1)n1[se]c2ccccc2c1=O
A. 96.9%

Q. Look at this compound and give its reported inhibition. O=c1c2ccccc2[se]n1-c1ccc(F)cc1
A. > 90%

Q. Look at this compound and give its reported inhibition. Cc1ccc2c(=O)n(Cc3ccccc3)[se]c2c1
A. < 90%

Q. Look at this compound and give its reported inhibition. O=c1c2ccccc2[se]n1-c1ccc(Cl)cc1
A. 94.3%

Q. Look at this compound and give its reported inhibition. O=c1c2ccccc2[se]n1-c1cccnc1
A. > 90%

Q. Look at this compound and give its reported inhibition. O=C(O)c1ccc(-n2[se]c3ccccc3c2=O)cc1
A. 96.8%

Q. Look at this compound and give its reported inhibition. O=c1c2cc(Br)ccc2[se]n1-c1ccccc1
A. < 90%

Q. Look at this compound and give its reported inhibition. O=c1c2ccccc2[se]n1-c1nnc(C2CCC(F)(F)CC2)s1
A. < 90%

Q. Look at this compound and give its reported inhibition. O=c1c2ccccc2[se]n1C12CC3CC(CC(C3)C1)C2
A. < 90%

Q. Look at this compound and give its reported inhibition. COC(=O)[C@H](CC(C)C)NC(=O)Cn1[se]c2ccccc2c1=O
A. > 90%

Q. Look at this compound and give its reported inhibition. CC(C)(C)c1nnc(-n2[se]c3ccccc3c2=O)s1
A. > 90%

Q. Look at this compound and give its reported inhibition. CN(C)CCn1[se]c2ccccc2c1=O
A. > 90%

Q. Look at this compound and give its reported inhibition. Cc1nnc(-n2[se]c3ccccc3c2=O)o1
A. 97.5%

Q. Look at this compound and give its reported inhibition. C=CCn1[se]c2ccccc2c1=O
A. > 90%

Q. Look at this compound and give its reported inhibition. O=c1c2ccccc2[se]n1-c1nnc(C2CCCC2)s1
A. < 90%

Q. Look at this compound and give its reported inhibition. O=c1c2ccccc2[se]n1-c1nncs1
A. < 90%

Q. Look at this compound and give its reported inhibition. O=c1c2ccccc2[se]n1-c1nccs1
A. < 90%

Q. Look at this compound and give its reported inhibition. COC(=O)[C@H](CO)n1[se]c2ccccc2c1=O
A. 93.8%

Q. Look at this compound and give its reported inhibition. O=c1c2ccccc2[se]n1-c1cc(C2CC2)[nH]n1
A. < 90%

Q. Look at this compound and give its reported inhibition. O=c1c2ccccc2[se]n1CCO
A. 96.2%

Q. Look at this compound and give its reported inhibition. O=c1c2ccccc2[se]n1-c1ccccn1
A. < 90%

Q. Look at this compound and give its reported inhibition. CCCc1nnc(-n2[se]c3ccccc3c2=O)s1
A. < 90%
